The measured values listed here are drawn from PubChem BioAssay AID1963967.

Tested on: 855422-203-R-J1-PDC spheroids with HUVEC/MSC, viability
Experiment: Anticancer human tumor 855422-203-R-J1-PDC patient-derived bladder carcinoma cell line growth inhibition [PI3K]
Details: curve of first compound; second compound 0.316 µM
Text: Combinatorial screen of targeted agents with the PI3K inhibitors inavolisib, alpelisib, duvelisib, and copanlisib in multi-cell type tumor spheroids A high-throughput screen of multi-cell type tumor spheroids was designed to identify active combinations of targeted small molecules and PI3K pathway inhibitors. […] Compounds. […] If the clinical Cmax for an agent had not been determined, the highest concentration tested was 10 microM. […]
measured attribute: pIC50
// pIC50: -log10(molar conc.)

INSERT INTO assay_data (compound, measurement_target, experimental_value) VALUES
  ('CC(C)NCC(C(=O)N1CCN(c2ncnc3c2C(C)CC3O)CC1)c1ccc(Cl)cc1 (stereo not given) + CC(Nc1ncnc2nc[nH]c12)c1cc2cccc(Cl)c2c(=O)n1-c1ccccc1', '855422-203-R-J1-PDC spheroids with HUVEC/MSC, viability', 5.95);

Kindly consider the entry below.
QUERY: Complete the entry with pIC50 for Cn1ncnc1[C@H]1c2n[nH]c(=O)c3cc(F)cc(c23)N[C@@H]1c1ccc(F)cc1 + CC(Nc1ccc2c(c1)OCCn1cc(N3C(=O)OCC3C(F)F)nc1-2)C(N)=O
RESULT: 7.95

====

test system: 855422-203-R-J1-PDC spheroids with HUVEC/MSC, viability; experiment: Anticancer human tumor 855422-203-R-J1-PDC cell line growth inhibition [PI3K]; settings: second compound 3.16 µM; first compound 0.001 µM; stronger effect = lower value;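 note: agents incubated with spheroids for one week before read-out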;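 for viability, T/C: 100% = DMSO vehicle-treated control wells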
Reported viability, T/C by item:
Please reply with the bare figure in % and do not write the unit itself.

INSERT INTO measurements (molecule, measurement_target, u, experimental_value) VALUES
  ('CC(=O)c1c(C)c2cnc(Nc3ccc(N4CCNCC4)cn3)nc2n(C2CCCC2)c1=O + CC(Nc1ncnc2nc[nH]c12)c1cc2cccc(Cl)c2c(=O)n1-c1ccccc1', '855422-203-R-J1-PDC spheroids with HUVEC/MSC, viability', '%', 96.4),
  ('CC(C)n1nc(-c2ccc3oc(N)nc3c2)c2c(N)ncnc21 + Cc1nc(NC(=O)N2CCCC2C(N)=O)sc1-c1ccnc(C(C)(C)C(F)(F)F)c1', '855422-203-R-J1-PDC spheroids with HUVEC/MSC, viability', '%', 44.7);

Kindly consider the entry below.
QUERY: Complete the entry with viability, T/C for CC(=O)c1c(C)c2cnc(Nc3ccc(N4CCNCC4)cn3)nc2n(C2CCCC2)c1=O + Cc1nc(NC(=O)N2CCCC2C(N)=O)sc1-c1ccnc(C(C)(C)C(F)(F)F)c1
RESULT: 46.9

====

test system: 855422-203-R-J1-PDC spheroids with HUVEC/MSC, viability; assay: Anticancer human tumor 855422-203-R-J1-PDC cell line growth inhibition [PI3K]; conditions: second compound 0.00316 µM; first compound 0.00316 µM; stronger effect = lower value;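 note: agents incubated with spheroids for one week before read-out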;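 for viability, T/C: 100% = DMSO vehicle-treated control wells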
Reported viability, T/C by item:
Please reply with the bare figure in % and do not write the unit itself.

Please review the entries below; each comes with its answer.
INSERT INTO assay_data (molecule, measured_attribute, u, experimental_value) VALUES
  ('CCN1CCN(Cc2ccc(Nc3ncc(F)c(-c4cc(F)c5nc(C)n(C(C)C)c5c4)n3)nc2)CC1 + COc1c(OCCCN2CCOCC2)ccc2c3n(c(=NC(=O)c4cnc(N)nc4)nc12)CCN3', 'viability, T/C', '%', 95.2),
  ('Cn1ncnc1[C@H]1c2n[nH]c(=O)c3cc(F)cc(c23)N[C@@H]1c1ccc(F)cc1 + CC(Nc1ccc2c(c1)OCCn1cc(N3C(=O)OCC3C(F)F)nc1-2)C(N)=O', 'viability, T/C', '%', 107);

Kindly consider the entry below.
QUERY: Complete the entry with viability, T/C for CC(C)n1nc(-c2ccc3oc(N)nc3c2)c2c(N)ncnc21 + COc1c(OCCCN2CCOCC2)ccc2c3n(c(=NC(=O)c4cnc(N)nc4)nc12)CCN3
RESULT: 94.4

====

tested on: 855422-203-R-J1-PDC spheroids with HUVEC/MSC, viability; test: Anticancer human tumor 855422-203-R-J1-PDC cell line growth inhibition [PI3K]; settings: second compound 0.0316 µM; first compound 0.1 µM; stronger effect = lower value;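 note: agents incubated with spheroids for one week before read-out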;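 for viability, T/C: 100% = DMSO vehicle-treated control wells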
Reported viability, T/C by item:
Please reply with the bare figure in % and do not write the unit itself.

INSERT INTO measurements (compound, measured_attribute, experimental_value) VALUES
  ('CC(Cn1ccc(-c2ccc(C#N)c(Cl)c2)n1)NC(=O)c1cc(C(C)O)[nH]n1 (stereo unspecified) + Cc1nc(NC(=O)N2CCCC2C(N)=O)sc1-c1ccnc(C(C)(C)C(F)(F)F)c1', 'viability, T/C', 87.1),
  ('CCCS(=O)(=O)Nc1ccc(F)c(C(=O)c2c[nH]c3ncc(-c4ccc(Cl)cc4)cc23)c1F + CC(Nc1ccc2c(c1)OCCn1cc(N3C(=O)OCC3C(F)F)nc1-2)C(N)=O', 'viability, T/C', 79.9),
  ('CNC(=O)c1ccc(N2C(=S)N(c3ccc(C#N)c(C(F)(F)F)c3)C(=O)C2(C)C)cc1F + COc1c(OCCCN2CCOCC2)ccc2c3n(c(=NC(=O)c4cnc(N)nc4)nc12)CCN3', 'viability, T/C', 69.3),
  ('Cn1nccc1Nc1nccc(-c2ccn(C(CO)c3ccc(Cl)c(F)c3)c(=O)c2)n1 (stereo unspecified) + CC(Nc1ccc2c(c1)OCCn1cc(N3C(=O)OCC3C(F)F)nc1-2)C(N)=O', 'viability, T/C', 82.1),
  ('Cn1ncnc1[C@H]1c2n[nH]c(=O)c3cc(F)cc(c23)N[C@@H]1c1ccc(F)cc1 + CC(Nc1ncnc2nc[nH]c12)c1cc2cccc(Cl)c2c(=O)n1-c1ccccc1', 'viability, T/C', 100);

QUERY: Please respond with reported viability, T/C (system 855422-203-R-J1-PDC spheroids with HUVEC/MSC, viability) for CC(Cn1ccc(-c2ccc(C#N)c(Cl)c2)n1)NC(=O)c1cc(C(C)O)[nH]n1 (stereo unspecified) + COc1c(OCCCN2CCOCC2)ccc2c3n(c(=NC(=O)c4cnc(N)nc4)nc12)CCN3 .
RESULT: 64.4

QUERY: Please respond with reported viability, T/C (system 855422-203-R-J1-PDC spheroids with HUVEC/MSC, viability) for Cn1ncc(Cl)c1-c1cc(C(=O)NC(CN)Cc2cccc(F)c2)sc1Cl (stereo unspecified) + CC(Nc1ncnc2nc[nH]c12)c1cc2cccc(Cl)c2c(=O)n1-c1ccccc1 .
RESULT: 78.2

QUERY: Please respond with reported viability, T/C (system 855422-203-R-J1-PDC spheroids with HUVEC/MSC, viability) for Cn1ncnc1[C@H]1c2n[nH]c(=O)c3cc(F)cc(c23)N[C@@H]1c1ccc(F)cc1 + COc1c(OCCCN2CCOCC2)ccc2c3n(c(=NC(=O)c4cnc(N)nc4)nc12)CCN3 .
RESULT: 53.1

QUERY: Please respond with reported viability, T/C (system 855422-203-R-J1-PDC spheroids with HUVEC/MSC, viability) for CC1(C)CCC(Nc2ncc(C(F)(F)F)c(-c3c[nH]c4c(P(C)(C)=O)c(C#N)ccc34)n2)CN1 (stereo unspecified) + Cc1nc(NC(=O)N2CCCC2C(N)=O)sc1-c1ccnc(C(C)(C)C(F)(F)F)c1 .
RESULT: 25.1

QUERY: Please respond with reported viability, T/C (system 855422-203-R-J1-PDC spheroids with HUVEC/MSC, viability) for C=CC(=O)N1CCN(c2nc(=O)n(-c3c(C)ccnc3C(C)C)c3nc(-c4c(O)cccc4F)c(F)cc23)C(C)C1 (stereo unspecified) + COc1c(OCCCN2CCOCC2)ccc2c3n(c(=NC(=O)c4cnc(N)nc4)nc12)CCN3 .
RESULT: 60.2

QUERY: Please respond with reported viability, T/C (system 855422-203-R-J1-PDC spheroids with HUVEC/MSC, viability) for CC1(C)CCC(CN2CCN(c3ccc(C(=O)NS(=O)(=O)c4ccc(NCC5CCOCC5)c([N+](=O)[O-])c4)c(Oc4cnc5[nH]ccc5c4)c3)CC2)=C(c2ccc(Cl)cc2)C1 + CC(Nc1ncnc2nc[nH]c12)c1cc2cccc(Cl)c2c(=O)n1-c1ccccc1 .
RESULT: 88.3

====

test system: 855422-203-R-J1-PDC spheroids with HUVEC/MSC, viability; test: Anticancer human tumor 855422-203-R-J1-PDC cell line growth inhibition [PI3K]; settings: second compound 0.01 µM; first compound 0.0316 µM; stronger effect = lower value;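 note: agents incubated with spheroids for one week before read-out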;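 for viability, T/C: 100% = DMSO vehicle-treated control wells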
Define the label as satisfied when viability, T/C is strictly less than 90% and as not satisfied in all remaining cases.

Some solved entries appear below for comparison.
INSERT INTO measurements (compound, group) VALUES
  ('CCCS(=O)(=O)Nc1ccc(F)c(C(=O)c2c[nH]c3ncc(-c4ccc(Cl)cc4)cc23)c1F + COc1c(OCCCN2CCOCC2)ccc2c3n(c(=NC(=O)c4cnc(N)nc4)nc12)CCN3', 'not satisfied'),
  ('C=CC(=O)N1CCN(c2nc(=O)n(-c3c(C)ccnc3C(C)C)c3nc(-c4c(O)cccc4F)c(F)cc23)C(C)C1 (stereo unspecified) + CC(Nc1ccc2c(c1)OCCn1cc(N3C(=O)OCC3C(F)F)nc1-2)C(N)=O', 'not satisfied'),
  ('CC(=O)c1c(C)c2cnc(Nc3ccc(N4CCNCC4)cn3)nc2n(C2CCCC2)c1=O + CC(Nc1ccc2c(c1)OCCn1cc(N3C(=O)OCC3C(F)F)nc1-2)C(N)=O', 'not satisfied'),
  ('CC1(C)CCC(Nc2ncc(C(F)(F)F)c(-c3c[nH]c4c(P(C)(C)=O)c(C#N)ccc34)n2)CN1 (stereo unspecified) + CC(Nc1ccc2c(c1)OCCn1cc(N3C(=O)OCC3C(F)F)nc1-2)C(N)=O', 'satisfied'),
  ('Cn1ncnc1[C@H]1c2n[nH]c(=O)c3cc(F)cc(c23)N[C@@H]1c1ccc(F)cc1 + CC(Nc1ccc2c(c1)OCCn1cc(N3C(=O)OCC3C(F)F)nc1-2)C(N)=O', 'not satisfied');

QUERY: For this compound, is viability, T/C lower than 90%? CC(C)n1nc(-c2ccc3oc(N)nc3c2)c2c(N)ncnc21 + COc1c(OCCCN2CCOCC2)ccc2c3n(c(=NC(=O)c4cnc(N)nc4)nc12)CCN3
RESULT: satisfied

QUERY: For this compound, is viability, T/C lower than 90%? Cn1ncnc1[C@H]1c2n[nH]c(=O)c3cc(F)cc(c23)N[C@@H]1c1ccc(F)cc1 + COc1c(OCCCN2CCOCC2)ccc2c3n(c(=NC(=O)c4cnc(N)nc4)nc12)CCN3
RESULT: not satisfied

QUERY: For this compound, is viability, T/C lower than 90%? C=CC(=O)N1CCN(c2nc(=O)n(-c3c(C)ccnc3C(C)C)c3nc(-c4c(O)cccc4F)c(F)cc23)C(C)C1 (stereo unspecified) + COc1c(OCCCN2CCOCC2)ccc2c3n(c(=NC(=O)c4cnc(N)nc4)nc12)CCN3
RESULT: satisfied

QUERY: For this compound, is viability, T/C lower than 90%? CC1(C)CCC(CN2CCN(c3ccc(C(=O)NS(=O)(=O)c4ccc(NCC5CCOCC5)c([N+](=O)[O-])c4)c(Oc4cnc5[nH]ccc5c4)c3)CC2)=C(c2ccc(Cl)cc2)C1 + CC(Nc1ccc2c(c1)OCCn1cc(N3C(=O)OCC3C(F)F)nc1-2)C(N)=O
RESULT: satisfied

QUERY: For this compound, is viability, T/C lower than 90%? CC(=O)c1c(C)c2cnc(Nc3ccc(N4CCNCC4)cn3)nc2n(C2CCCC2)c1=O + COc1c(OCCCN2CCOCC2)ccc2c3n(c(=NC(=O)c4cnc(N)nc4)nc12)CCN3
RESULT: satisfied

QUERY: For this compound, is viability, T/C lower than 90%? CCCS(=O)(=O)Nc1ccc(F)c(C(=O)c2c[nH]c3ncc(-c4ccc(Cl)cc4)cc23)c1F + CC(Nc1ccc2c(c1)OCCn1cc(N3C(=O)OCC3C(F)F)nc1-2)C(N)=O
RESULT: not satisfied
